Hey, just so you know, these numbers are from patent US20250368649A1.

biological target: KRas WT (Homo sapiens, UniProt P01116); experiment: KRas binding assay (TR-FRET displacement), KRas WT; conditions: single point, 10 nM compound
Sequence (P01116 1-169 isoform P01116-2): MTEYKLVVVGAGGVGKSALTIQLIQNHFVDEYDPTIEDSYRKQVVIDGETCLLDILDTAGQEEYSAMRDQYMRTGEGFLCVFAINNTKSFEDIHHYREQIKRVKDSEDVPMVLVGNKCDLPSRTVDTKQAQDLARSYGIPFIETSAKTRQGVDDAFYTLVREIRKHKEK
Assign inhibition at 0.01 µM to each entry below.
# value in %; strip the unit string

Item CCc1c(F)ccc2cc(O)cc(N3CCc4c(nc(OC[C@@]56CCCN5C[C@H](F)C6)nc4N4CCCC5(CC(=O)NC5=O)C4)C3)c12 (some centres unmarked) [Example 419] has what recorded inhibition at 0.01 µM?
62

Item CCc1c(F)ccc2cc(O)cc(N3CCc4c(nc(OC[C@@]56CCCN5C[C@H](F)C6)nc4N4CCCn5nc(C(=O)N6C[C@@H](C)N[C@@H](C)C6)cc5C4)C3)c12 [Example 303] has what recorded inhibition at 0.01 µM?
97

Item CCc1c(F)ccc2cc(O)cc(N3CCc4c(nc(OC[C@@]56CCCN5C[C@H](F)C6)nc4N4CCCc5nc(C(=O)N(C)C)sc5C4)C3)c12 [Example 304] has what recorded inhibition at 0.01 µM?
70

Item CCc1c(F)ccc2cc(O)cc(N3CCc4c(nc(OC[C@@]56CCCN5C[C@H](F)C6)nc4N4Cc5cn(C(=O)N(C)C)nc5CC(C)C4)C3)c12 (some centres unmarked) [Example 422] has what recorded inhibition at 0.01 µM?
58

Item CCc1c(F)ccc2cc(O)cc(N3CCc4c(nc(OC[C@@]56CCCN5C[C@H](F)C6)nc4N4CCCOCC4)C3)c12 [Example 420] has what recorded inhibition at 0.01 µM?
95

Item CCc1c(F)ccc2cc(O)cc(N3CCc4c(nc(OC[C@@]56CCCN5C[C@H](F)C6)nc4N4CCCn5nc(C(=O)OC)cc5C4)C3)c12 [Example 411] has what recorded inhibition at 0.01 µM?
73

Item CCc1c(F)ccc2cc(O)cc(N3CCc4c(nc(OC[C@@]56CCCN5C[C@H](F)C6)nc4N4CCCn5nc(C(=O)N(C)C)c(COC)c5C4)C3)c12 [Example 269] has what recorded inhibition at 0.01 µM?
99

Item CCc1c(F)ccc2cc(O)cc(N3CCc4c(nc(OC[C@@]56CCCN5C[C@H](F)C6)nc4N4CCCn5nc(C(=O)N6CC7CCC6CC7)cc5C4)C3)c12 [Example 339] has what recorded inhibition at 0.01 µM?
93

Item CCc1c(F)ccc2cc(O)cc(N3CCc4c(nc(OC[C@@]56CCCN5C[C@H](F)C6)nc4N4CCCn5nc(NC)c(F)c5C4)C3)c12 [Example 406] has what recorded inhibition at 0.01 µM?
68

Item CCc1c(F)ccc2cc(O)cc(N3CCc4c(nc(OC[C@@]56CCCN5C[C@H](F)C6)nc4N4CCCn5nc(C(=O)N(C)C6CCC6)cc5C4)C3)c12 [Example 385] has what recorded inhibition at 0.01 µM?
95

Item CCc1c(F)ccc2cc(O)cc(N3CCc4c(nc(OC[C@@]56CCCN5C[C@H](F)C6)nc4N4CCCCn5nc(C(=O)N6CCOCC6)cc5C4)C3)c12 [Example 360] has what recorded inhibition at 0.01 µM?
97

Item CCc1c(F)ccc2cc(O)cc(N3CCc4c(nc(OC[C@@]56CCCN5C[C@H](F)C6)nc4N4CCCCn5nc(C(=O)N(C)C)cc5C4)C3)c12 [Example 349] has what recorded inhibition at 0.01 µM?
96

Item CCc1c(F)ccc2cc(O)cc(N3CCc4c(nc(OC[C@@]56CCCN5C[C@H](F)C6)nc4N4CCCn5nc(C(=O)N6CC7CC(C6)N7)cc5C4)C3)c12 [Example 283] has what recorded inhibition at 0.01 µM?
95

Item CCNC(=O)c1nn2c(c1Cl)CN(c1nc(OC[C@@]34CCCN3C[C@H](F)C4)nc3c1CCN(c1cc(O)cc4ccc(F)c(CC)c14)C3)CCC2 [Example 367] has what recorded inhibition at 0.01 µM?
98

Item CCNC(=O)c1nn2c(c1C)CN(c1nc(OC[C@@]34CCCN3C[C@H](F)C4)nc3c1CCN(c1cc(O)cc4ccc(F)c(CC)c14)C3)CCC2 [Example 379] has what recorded inhibition at 0.01 µM?
93

Item CCc1c(F)ccc2cc(O)cc(N3CCc4c(nc(OC[C@@]56CCCN5C[C@H](F)C6)nc4N4CCCn5nc(C(=O)N6CC7CCC(C6)N7)cc5C4)C3)c12 [Example 265] has what recorded inhibition at 0.01 µM?
98

Item CCc1c(F)ccc2cc(O)cc(N3CCc4c(nc(OC[C@@]56CCCN5C[C@H](F)C6)nc4N4CCCn5nc(C(=O)N6CC7CCC6CN7)cc5C4)C3)c12 (some centres unmarked) [Example 264] has what recorded inhibition at 0.01 µM?
96

Item CCc1c(F)ccc2cc(O)cc(N3CCc4c(nc(OC[C@@]56CCCN5C[C@H](F)C6)nc4N4CCCn5nc(C(=O)N(C)CCOCCOC)cc5C4)C3)c12 [Example 373] has what recorded inhibition at 0.01 µM?
96

Item CCc1c(F)ccc2cc(O)cc(N3CCc4c(nc(OC[C@@]56CCCN5C[C@H](F)C6)nc4N4CCCn5nnc(Br)c5C4)C3)c12 [Example 284] has what recorded inhibition at 0.01 µM?
88

Item CCc1c(F)ccc2cc(O)cc(N3CCc4c(nc(OC[C@@]56CCCN5C[C@H](F)C6)nc4N4CCCn5nc(C(=O)N(C)C6CC6)cc5C4)C3)c12 [Example 383] has what recorded inhibition at 0.01 µM?
97

Item CCc1c(F)ccc2cc(O)cc(N3CCc4c(nc(OC[C@@]56CCCN5C[C@H](F)C6)nc4N4CCCn5nc(C(=O)N(C)C)c(OC)c5C4)C3)c12 [Example 370] has what recorded inhibition at 0.01 µM?
97

Item CCc1c(F)ccc2cc(O)cc(N3CCc4c(nc(OC[C@@]56CCCN5C[C@H](F)C6)nc4N4CCCn5nnc(Cl)c5C4)C3)c12 [Example 391] has what recorded inhibition at 0.01 µM?
81

Item CCc1c(F)ccc2cc(O)cc(N3CCc4c(nc(OC[C@@]56CCCN5C[C@H](F)C6)nc4N4CCCn5nc(C(=O)N6C7CCC6CC7)cc5C4)C3)c12 [Example 340] has what recorded inhibition at 0.01 µM?
94
